Values compiled from ChEMBL document CHEMBL1137135.

The compounds listed here are annotated with their pKi.
Protocol text: Binding affinity of compound towards Factor Xa
pKi: −log10 of the molar value.
Measure: pKi

1. CN(C)Cc1ccccc1-c1ccc(C(=O)N[C@@H](CC(=O)Nc2ccc(Cl)cn2)C(=O)N2CCCCC2)cc1 ... 9.00
2. CN(C)Cc1ccccc1-c1ccc(C(=O)N[C@H](CC(=O)Nc2ccc(Br)cn2)C(=O)N2CCCCC2)cc1 ... 9.85
3. CN(C)Cc1ccccc1-c1ccc(C(=O)N[C@H](CC(=O)Nc2ccc(Cl)cn2)C(=O)N2CCCCC2)cc1 ... 9.40
4. NS(=O)(=O)c1ccccc1-c1ccc(C(=O)NCCC(=O)Nc2ccc(Br)cn2)cc1 ... 8.12
5. NS(=O)(=O)c1ccccc1-c1ccc(C(=O)NC(CC(=O)Nc2ccc(Br)cn2)C(=O)N2CCCCC2)cc1 (stereo unspecified) ... 8.87
6. NS(=O)(=O)c1ccccc1-c1ccc(C(=O)NC(CC(=O)Nc2ccc(Br)cn2)C(=O)O)cc1 (stereo unspecified) ... 8.76
